Test system: FXR:RXRa (NR concentration 270 nM, RXRa partner concentration 90 nM)
procedure.summary: PBM binding z-score (relative to random genomic background probes); higher = stronger binding; sequences stand for … in GC…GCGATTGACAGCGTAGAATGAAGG
Respond with t for PBM binding z-score values of 4 and above, f for values below.

Completed entries (count: 2):
[[record]]
sequence_input = "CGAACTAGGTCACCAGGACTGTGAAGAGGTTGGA"
class_assignment = "t"

[[record]]
sequence_input = "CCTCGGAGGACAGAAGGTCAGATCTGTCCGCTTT"
class_assignment = "f"


Prompt: Check this sequence for PBM binding z-score at or above 4: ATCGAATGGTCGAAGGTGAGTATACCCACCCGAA
Completion: f

Prompt: Check this sequence for PBM binding z-score at or above 4: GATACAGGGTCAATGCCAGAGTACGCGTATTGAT
Completion: t

Prompt: Check this sequence for PBM binding z-score at or above 4: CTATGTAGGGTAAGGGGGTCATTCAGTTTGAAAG
Completion: t

Prompt: Check this sequence for PBM binding z-score at or above 4: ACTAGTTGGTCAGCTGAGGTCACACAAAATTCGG
Completion: t
